B1: tRNA (parent)
chain: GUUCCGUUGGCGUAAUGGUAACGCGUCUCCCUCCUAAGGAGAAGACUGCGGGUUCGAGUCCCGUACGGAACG

# Variants of: B1
# Procedure details: yeast fitness relative to wild type (ratio to wild type); higher = fitter; tRNA-Arg(CCU), competitive growth, 37 C, YPD
Fewer inactive variants are shown than the library holds.
Threshold rule: yeast fitness greater than or equal to 0.6 is t; below that, f.

Q: Quick check, yeast fitness >= 0.6? U28A C30U A57G
Ans: t

Q: Quick check, yeast fitness >= 0.6? C24A A57U
Ans: t

Q: Quick check, yeast fitness >= 0.6? U19C U28A G38C G44C C46A
Ans: f

Q: Quick check, yeast fitness >= 0.6? A43C C66U
Ans: t

Q: Quick check, yeast fitness >= 0.6? G17A U28C A42C C66U
Ans: f

Q: Quick check, yeast fitness >= 0.6? C27A G39C C46A
Ans: f

Q: Quick check, yeast fitness >= 0.6? G23C U28C C29U A69C
Ans: f

Q: Quick check, yeast fitness >= 0.6? A15C C30A C34A A42C G56A A57U
Ans: f

Q: Quick check, yeast fitness >= 0.6? C11U C27G A43C A57U
Ans: t

Q: Quick check, yeast fitness >= 0.6? G56A A69C A70U
Ans: t

Q: Quick check, yeast fitness >= 0.6? C11G A14G C24G G67C
Ans: f

Q: Quick check, yeast fitness >= 0.6? U3G G17C G18C C22A C60A C66U
Ans: f

Q: Quick check, yeast fitness >= 0.6? U3C G48C
Ans: t

Q: Quick check, yeast fitness >= 0.6? U54G G63C
Ans: f

Q: Quick check, yeast fitness >= 0.6? C4G G68U
Ans: t

Q: Quick check, yeast fitness >= 0.6? C11A G18A
Ans: f

Q: Quick check, yeast fitness >= 0.6? U26A G58C C62U
Ans: t

Q: Quick check, yeast fitness >= 0.6? U16G C34G A42G C49G C62U A69C
Ans: f

Q: Quick check, yeast fitness >= 0.6? C5U C30A
Ans: t

Q: Quick check, yeast fitness >= 0.6? A21U C34G U35C
Ans: t

Q: Quick check, yeast fitness >= 0.6? C30U A43G G51C
Ans: f

Q: Quick check, yeast fitness >= 0.6? G6A A14G A45G
Ans: t

Q: Quick check, yeast fitness >= 0.6? A37G G63C A65U
Ans: f

Q: Quick check, yeast fitness >= 0.6? C24U C34G U35G G38A A45C
Ans: t

Q: Quick check, yeast fitness >= 0.6? A42U U47C C62U
Ans: t

Q: Quick check, yeast fitness >= 0.6? U3C C29G G44C C49G A57C
Ans: f

Q: Quick check, yeast fitness >= 0.6? U19C C33G A57G C61G
Ans: f

Q: Quick check, yeast fitness >= 0.6? C11U G18A A36U
Ans: f

Q: Quick check, yeast fitness >= 0.6? U16C G17C G38C C46U G58C
Ans: t

Q: Quick check, yeast fitness >= 0.6? U8G G18A G50C A65U
Ans: f

Q: Quick check, yeast fitness >= 0.6? A14U U19A A21C G48C G63A A70G
Ans: f

Q: Quick check, yeast fitness >= 0.6? C5G A20C
Ans: t

Q: Quick check, yeast fitness >= 0.6? U16A C24U C30G U35A
Ans: f

Q: Quick check, yeast fitness >= 0.6? A21U C29G C49G
Ans: f

Q: Quick check, yeast fitness >= 0.6? A36G A65G A70G
Ans: t

Q: Quick check, yeast fitness >= 0.6? C4U G12A A20G C22U U35A A45C
Ans: f

Q: Quick check, yeast fitness >= 0.6? G12A A20G G63A
Ans: f

Q: Quick check, yeast fitness >= 0.6? A14U A37U U47A
Ans: t

Q: Quick check, yeast fitness >= 0.6? C5A C30A C34U C46U
Ans: f

Q: Quick check, yeast fitness >= 0.6? U19C C31U C33G G41A C49G U54C U59C G63A
Ans: f

Q: Quick check, yeast fitness >= 0.6? C4G C11A C31U A40C
Ans: f

Q: Quick check, yeast fitness >= 0.6? C22G U47A G52A
Ans: f

Q: Quick check, yeast fitness >= 0.6? G12A G25A C62G
Ans: f

Q: Quick check, yeast fitness >= 0.6? U19C A36U C62G
Ans: f

Q: Quick check, yeast fitness >= 0.6? C22U C60U C61A
Ans: f

Q: Quick check, yeast fitness >= 0.6? C5G U19G C22U A43G C49G
Ans: f

Q: Quick check, yeast fitness >= 0.6? U8G G50C
Ans: f

Q: Quick check, yeast fitness >= 0.6? A45G G51A
Ans: t

Q: Quick check, yeast fitness >= 0.6? A57C U64G
Ans: f

Q: Quick check, yeast fitness >= 0.6? C5G G9A C30G
Ans: f

Q: Quick check, yeast fitness >= 0.6? A14G U19A C27U C34U C66U
Ans: f

Q: Quick check, yeast fitness >= 0.6? C4A U26C C27G C33G A37U G41A A57G C62G
Ans: f

Q: Quick check, yeast fitness >= 0.6? U8C U19C G23C U53C
Ans: f

Q: Quick check, yeast fitness >= 0.6? U8C G9A C22G U32G G51C U64A C66U A69C
Ans: f

Q: Quick check, yeast fitness >= 0.6? G18C A42U G48C G68C A69U
Ans: f

Q: Quick check, yeast fitness >= 0.6? U3A C5A C30G G38C C61A
Ans: t

Q: Quick check, yeast fitness >= 0.6? C27U A42U A43U U47C
Ans: f

Q: Quick check, yeast fitness >= 0.6? C4G C22U C30U C33U A45C
Ans: f

Q: Quick check, yeast fitness >= 0.6? U3A G6C C55G
Ans: f

Q: Quick check, yeast fitness >= 0.6? G23A C49A U59C C62U A65U A70C
Ans: f

Q: Quick check, yeast fitness >= 0.6? A36G A37U G67A
Ans: f

Q: Quick check, yeast fitness >= 0.6? C24G A65C
Ans: t

Q: Quick check, yeast fitness >= 0.6? C33U A57G
Ans: t

Q: Quick check, yeast fitness >= 0.6? C4G G18A A21G G25A G51C
Ans: f

Q: Quick check, yeast fitness >= 0.6? U3A C29G G50A
Ans: f

Q: Quick check, yeast fitness >= 0.6? U19A C27A C46A
Ans: f

Q: Quick check, yeast fitness >= 0.6? C4A C11G
Ans: t

Q: Quick check, yeast fitness >= 0.6? C5G C11U G25C G52U
Ans: t

Q: Quick check, yeast fitness >= 0.6? U7A A20G G23A G44A G52C
Ans: f

Q: Quick check, yeast fitness >= 0.6? G6A A21G C24G A37U
Ans: f

Q: Quick check, yeast fitness >= 0.6? C34U A40C A42C G48A C61G G67C G68A
Ans: f

Q: Quick check, yeast fitness >= 0.6? C5A A14U A21G G52A
Ans: f

Q: Quick check, yeast fitness >= 0.6? U47G U54A G58A
Ans: f

Q: Quick check, yeast fitness >= 0.6? A15C U47A G52C
Ans: f

Q: Quick check, yeast fitness >= 0.6? C22A C31G G41C G63C A70U
Ans: f

Q: Quick check, yeast fitness >= 0.6? C5G G9A A14C A37G C62G
Ans: f

Q: Quick check, yeast fitness >= 0.6? C11U C29G
Ans: t

Q: Quick check, yeast fitness >= 0.6? C11U C49G C62U
Ans: f

Q: Quick check, yeast fitness >= 0.6? C5U U13C C22G C29A A45U
Ans: f

Q: Quick check, yeast fitness >= 0.6? C5G G6A U47A G68C
Ans: f

Q: Quick check, yeast fitness >= 0.6? A14U A15G C34G
Ans: f

Q: Quick check, yeast fitness >= 0.6? U16C C30A C31U
Ans: t

Q: Quick check, yeast fitness >= 0.6? C30A C66U
Ans: t

Q: Quick check, yeast fitness >= 0.6? U7A A15G G23C C33G G63A
Ans: f

Q: Quick check, yeast fitness >= 0.6? U16A C22G A69U
Ans: t

Q: Quick check, yeast fitness >= 0.6? U7A A43G
Ans: t

Q: Quick check, yeast fitness >= 0.6? A20C U53A
Ans: t

// data source = the RNAGym collection of RNA variant scans (doi:10.1126/science.aae0568)
